Target: T1, fibroblast activation protein (FAP) on FAP-expressing human WI-38 fibroblasts (human, UniProt Q12884 1-760)
T1 construct: also called human FAP
Assay: competitive FACS, WI-38 cells, vs Cy5 tracer m3; A = pIC50 >8.0
Numbered stars: 1 amine (or outer) side, 2 acyl side, 3 side chain; on linkers, the order of the positions; unused ones are H or OH. Bridge positions count the residues as written; N and C are the ends. Square brackets hold non-standard residues; d marks the D form. mXylylene = c1cc(C[*:1])cc(C[*:2])c1
measure: pIC50 Category (FACS)

Task: Given the binder Ac-MCPPTEFCDHFR[dD]-NH2 (linker 2-8 via mXylylene; SMILES CSCC[C@H](NC(C)=O)C(=O)N[C@H]1CSCc2cccc(c2)CSC[C@@H](C(=O)N[C@@H](CC(=O)O)C(=O)N[C@@H](Cc2c[nH]cn2)C(=O)N[C@@H](Cc2ccccc2)C(=O)N[C@@H](CCCNC(=N)N)C(=O)N[C@H](CC(=O)O)C(N)=O)NC(=O)[C@H](Cc2ccccc2)NC(=O)[C@H](CCC(=O)O)NC(=O)[C@H]([C@@H](C)O)NC(=O)[C@@H]2CCCN2C(=O)[C@@H]2CCCN2C1=O, also called 3BP-3213) [Ac-Met-[Cys(3MeBn)-Pro-Pro-Thr-Glu-Phe-Cys]-Asp-His-Phe-Arg-asp-NH2] , what is its reported pIC50 Category (FACS)?
Result: > 8 pIC50
